This collection of values is drawn from ChEMBL document CHEMBL4513216.

cytotoxicity at 10 µM values, listed per item
- assay: Toxicity liver stage against HepG2, at 10uM
- Format: cell-based
- Set-up: test concentration 10 uM, cell line HepG2-A16-CD81EGFP
- particulars: human, HepG2-A16-CD81EGFP cells; read-out: INHIBITION
Answer with a number only, understood to be in %.

Worked examples follow.
{"molecule": "O=C(NCc1cncc2c1CCN(Cc1cccs1)C2)C1CC1", "cytotoxicity at 10 µM [%]": 2.13}
{"molecule": "OCC1CCC2(CC1)CN(Cc1ccsc1)Cc1ccccc1O2 (configuration not stated)", "cytotoxicity at 10 µM [%]": -3.78}
{"molecule": "COCC(C)NC(=O)NCCCc1cc(N)n(-c2ccccc2)n1 (configuration not stated)", "cytotoxicity at 10 µM [%]": -12.2}
{"molecule": "Cn1ccnc1C1(O)CCCN(Cc2ccncc2)CC1 (configuration not stated)", "cytotoxicity at 10 µM [%]": 1.52}
{"molecule": "CCN1CCC12CCN(C(=O)c1cc(C)on1)C2 (configuration not stated)", "cytotoxicity at 10 µM [%]": 5.71}
{"molecule": "CSCC(=O)N1CCOC(c2nc(C(C)(C)C)n[nH]2)C1 (configuration not stated)", "cytotoxicity at 10 µM [%]": -9.58}
{"molecule": "CN1CCN(c2cc(N3CCCC3CO)ncn2)Cc2ccccc21 (configuration not stated)", "cytotoxicity at 10 µM [%]": -5.22}
{"molecule": "c1cnn(CC2CCCN2c2ncnc3ccsc23)c1 (configuration not stated)", "cytotoxicity at 10 µM [%]": 9.12}
{"molecule": "COC(=O)N1CCN(CCCc2nnnn2-c2ccccc2)CC1", "cytotoxicity at 10 µM [%]": 14}
{"molecule": "CC(C)NC(=O)N1CCN(C(=O)C2CCOCC2)CC2(CNC(=O)C2)C1 (configuration not stated)", "cytotoxicity at 10 µM [%]": 0.748}

Request: Recorded cytotoxicity at 10 µM for CC(=O)N1CCN(C2CCCCc3ccccc32)CC1 (configuration not stated) , please?
Result: -46.3

Request: Data request, read-out cytotoxicity at 10 µM, for "O=C(NCCNc1ncccn1)c1ccc(-c2ccco2)[nH]c1=O"
Result: -3.29

###

- assay: Toxicity liver stage against HepG2, at 10uM
- Assay type: cell-based
- Design: test concentration 10 uM, cell line HepG2-A16-CD81EGFP
- particulars: human, HepG2-A16-CD81EGFP cells; read-out: INHIBITION
measured-parameter: cytotoxicity at 10 µM (%)
Express your answer in %, writing the number without its unit.

{"molecule": "CSc1cccc(CN(C)C(=O)C2CC(=O)N(CCN(C)C)C2)c1 (stereo not drawn)", "unit-of-measurement": "%", "quantitative-result": -16.5}
{"molecule": "CC(=O)N1CCCC1c1nc(C)no1 (stereo not drawn)", "unit-of-measurement": "%", "quantitative-result": -14.8}
{"molecule": "CCCN(CCOC)c1nc(C)nc2sccc12", "unit-of-measurement": "%", "quantitative-result": -134}

Now examine the next entry.
Request: Can you share its cytotoxicity at 10 µM? I mean this molecule: Cc1cnn(C2CCCN(C(=O)c3ccnc(N(C)C)c3)C2)c1 (stereo not drawn)
Result: 5.15

###

// cytotoxicity at 10 µM lookup, one value per entry
- assay: Toxicity liver stage against HepG2, at 10uM
- Format: cell-based
- Set-up: test concentration 10 uM, cell line HepG2-A16-CD81EGFP
- particulars: human, HepG2-A16-CD81EGFP cells; read-out: INHIBITION
Number first, unit second: that is the form wanted.

Request: What measured cytotoxicity at 10 µM goes with CCOCCC(=O)NC(Cc1ccc(C)cc1)c1ccccn1 (configuration not stated) ?
Result: -1.55%

Request: Find the recorded cytotoxicity at 10 µM belonging to "COCCN1CCN(Cc2nc(-c3ccoc3)no2)CC1" and report it.
Result: 16%

Request: I'd like to know its cytotoxicity at 10 µM. The molecule in question is Cc1cnccc1NCCNC(=O)C1CCCN(Cc2ccco2)C1 (configuration not stated)
Result: -7.67%

Request: For the molecule "CCCNC(=O)CN1CCC(NC(=O)c2cc(CC)ccc2O)CC1" , what cytotoxicity at 10 µM is on record?
Result: 1.93%

###

- assay: Toxicity liver stage against HepG2, at 10uM
- Type: cell-based
- Parameters: test concentration 10 uM, cell line HepG2-A16-CD81EGFP
- particulars: human, HepG2-A16-CD81EGFP cells; read-out: INHIBITION
Listed next: entries and their corresponding cytotoxicity at 10 µM.
Provide only the numeric value, understood in %.

Examples from the recorded data:
{"molecule": "Cc1cccc(S(=O)(=O)N2Cc3c(CN(C)C)nn(C)c3C2)c1", "unit-of-measurement": "%", "quantitative-result": -0.53}
{"molecule": "CCc1nc(CCNC(=O)Nc2cc(C(N)=O)ccc2OC)cs1", "unit-of-measurement": "%", "quantitative-result": 1.43}
{"molecule": "c1cnc(N2CC3(CCN(Cc4cccnc4)C3)C2)nc1", "unit-of-measurement": "%", "quantitative-result": -4.87}
{"molecule": "O=C1CCOC[C@]2(CN(Cc3ccccc3)C[C@H]2c2ccccc2)N1", "unit-of-measurement": "%", "quantitative-result": -14.1}
{"molecule": "Cn1cc(C2=CCN(CCCOc3ccc(C(N)=O)cc3)CC2)cn1", "unit-of-measurement": "%", "quantitative-result": 6.39}
{"molecule": "CCc1cc(N[C@@H]2C[C@@H]3CC[C@H]2C3)n2nccc2n1", "unit-of-measurement": "%", "quantitative-result": -2.24}
{"molecule": "Cc1ccnc(NC(=O)C2CCN(CCCn3ccnc3)CC2)c1", "unit-of-measurement": "%", "quantitative-result": -57.9}
{"molecule": "Nc1cc(-c2cc[nH]n2)nc(N2CCCC2)n1", "unit-of-measurement": "%", "quantitative-result": 1.56}
{"molecule": "CCC(=O)c1ccc(OCC(=O)NC(C)c2ncnn2CC)cc1 (centres undefined)", "unit-of-measurement": "%", "quantitative-result": 1.9}
{"molecule": "Cc1c(Br)cccc1CNC1(CCO)CCOCC1", "unit-of-measurement": "%", "quantitative-result": -10.7}

Request: Fill in the blank: the reported cytotoxicity at 10 µM of "C[C@@H]1CN(c2ccc(C#N)cn2)CC[C@@]1(O)C1CCOCC1" is ____.
Result: -1.5

Request: I have this molecule here, CN(C)c1ncc(-c2cncnc2)c(C2CNCCO2)n1 (centres undefined) , and I need its recorded cytotoxicity at 10 µM.
Result: 1.69

Request: For the molecule shown here, "COc1cccc(S(=O)(=O)CCNCCn2cccn2)c1" , give the reported cytotoxicity at 10 µM.
Result: -4.96

###

- assay: Toxicity liver stage against HepG2, at 10uM
- Format: cell-based
- Parameters: test concentration 10 uM, cell line HepG2-A16-CD81EGFP
- particulars: human, HepG2-A16-CD81EGFP cells; read-out: INHIBITION
measured-parameter: cytotoxicity at 10 µM (%)
Express your answer in %, writing the number without its unit.

These solved cases illustrate the format of a correct answer.
{"compound": "COc1ccc(-n2ccc(C(=O)NCCN3CCCC(C)C3)n2)cc1 (stereo unspecified)", "unit-of-measurement": "%", "cytotoxicity at 10 µM": -0.0158}
{"compound": "CC(C)C1SCC(=O)Nc2c1c(O)nn2C1CCCCC1 (stereo unspecified)", "unit-of-measurement": "%", "cytotoxicity at 10 µM": 2.42}
{"compound": "O=C1CC2(CCN(CC3CCOC3)CC2)CN1Cc1cc(F)cc(F)c1 (stereo unspecified)", "unit-of-measurement": "%", "cytotoxicity at 10 µM": -18.9}
{"compound": "COCCN(Cc1nccs1)c1nc2c(s1)c(C)nn2C", "unit-of-measurement": "%", "cytotoxicity at 10 µM": -47.6}

Request: I'd like to know its cytotoxicity at 10 µM. The compound in question is "NCCc1nc(N(Cc2cncs2)C2CC2)c2ccccc2n1"
Result: -7.15

Request: I am curious: what cytotoxicity at 10 µM value has been reported for CCN1CC2(CC1=O)CN(Cc1ccco1)CCN(C(=O)C(C)C)C2 (stereo unspecified) ?
Result: -4.51

###

- assay: Toxicity liver stage against HepG2, at 10uM
- Assay type: cell-based
- Parameters: test concentration 10 uM, cell line HepG2-A16-CD81EGFP
- particulars: human, HepG2-A16-CD81EGFP cells; read-out: INHIBITION
measured-parameter: cytotoxicity at 10 µM (%)
State just the number; it will be interpreted in %.

{"molecule": "CC(O)CNc1nc(-c2cccnc2)nc2c1CCC2 (configuration not stated)", "cytotoxicity at 10 µM / %": 9.8}
{"molecule": "Cc1cnn(CC(=O)Nc2cc(-n3nnnc3C3CC3)ccc2F)c1", "cytotoxicity at 10 µM / %": -5.46}
{"molecule": "O=C(C1CC(=O)N(c2ccccc2Br)C1)N1CCCCCC1 (configuration not stated)", "cytotoxicity at 10 µM / %": 8.52}
{"molecule": "CCc1cnc(CN(C)C(C)C(=O)N2CCc3ccccc3C2)s1 (configuration not stated)", "cytotoxicity at 10 µM / %": 7.2}

Request: Requested field: cytotoxicity at 10 µM. Item: CCCSCC(=O)N1CCN(c2ccc(C)cc2)CC1C (configuration not stated)
Result: -165

Request: Query: cytotoxicity at 10 µM; subject: "Cc1ccc(C(=O)N2CCC3(CC2)CN(CCN(C)C)C(=O)O3)c(F)c1"
Result: 7.46

Request: Please give the measured cytotoxicity at 10 µM for this molecule: "Cc1cc(-c2nn(C)c(Cl)c2CN2CC[C@H](CO)[C@@H](O)C2)no1"
Result: 2.45

Request: // returns reported cytotoxicity at 10 µM for input CCc1nc(C2CCCN2CCCS(N)(=O)=O)no1 (configuration not stated)
Result: -6.66

Request: Consider the molecule Cn1ncc(C(=O)N2CCCC(n3cccn3)C2)c1C1CC1 (configuration not stated) and give its measured cytotoxicity at 10 µM.
Result: 4.98

Request: // returns reported cytotoxicity at 10 µM for input "Cc1cc(C(=O)Nc2cnn(CC(=O)NC3CCCC3)c2)c(C)s1"
Result: 3.07

Request: Entry CC(C)(C)OCC1CN(Cc2cccs2)S(=O)(=O)c2cnccc2O1 (configuration not stated) has what cytotoxicity at 10 µM?
Result: 2.89

Request: Looking for the measured cytotoxicity at 10 µM of "O=C(c1ccoc1)N(Cc1cccnc1)C1CC1" , can you help?
Result: -13.2
